tested on: MRC-5 cell line; experiment: Cell viability assay for MRC-5 cell line (EZ-Cytox); format: cell-based; settings: Homo sapiens, MRC5, 120 h; MRC-5 normal cell line, 5 days, 10000 nM to 1.52 nM; read-out: Activity: IC50 value, cell viability, MRC-5 cell line (Exemplary Compounds)
measure: IC50

Some molecules with recorded IC50:
{"columns": ["molecule", "system-name", "IC50"],
 "data": [
  ["COc1cc(C(=O)N[C@H]2C3CN(CC4CCN(c5ccc(NC6CCC(=O)NC6=O)cc5)CC4)C[C@@H]32)ccc1Nc1ncc2c(n1)N(C(C)C)CC(F)(F)C(=O)N2C (stereo partly drawn)", "MRC-5 cell line", "> 10 µM"],
  ["COc1cc(-c2nnc(CN3CCC(CCN4CCN(c5cc(F)c(NC6CCC(=O)NC6=O)cc5F)CC4)CC3)o2)ccc1Nc1ncc2c(n1)N(C1CCCC1)CC(F)(F)C(=O)N2C (stereo not drawn)", "MRC-5 cell line", "> 10 µM"],
  ["CCN1CC(F)(F)C(=O)N(C)c2cnc(Nc3cc(F)c(C(=O)NN4CCC(CCN5CCN(c6ccc(NC7CCC(=O)NC7=O)c(F)c6)CC5)CC4)cc3OC)nc21 (stereo not drawn)", "MRC-5 cell line", "> 10 µM"],
  ["COc1cc(C(=O)NC2CCN(CCN3CCN(c4cc(Cl)c(NC5CCC(=O)NC5=O)cc4F)CC3)CC2)c(F)cc1Nc1ncc2c(n1)N(C(C)C)CC(F)(F)C(=O)N2C (stereo not drawn)", "MRC-5 cell line", "> 10 µM"]
]}

Challenge: Please provide the recorded IC50 for COc1cc(C(=O)NC2CC3(CCN(CC4CCN(c5cnc(C6CCC(=O)NC6=O)cc5C)CC4)CC3)C2)ccc1Nc1ncc2c(n1)N(C1CCCC1)CC(F)(F)C(=O)N2C (stereo not drawn) , tested on MRC-5 cell line.
Response given: > 10 µM

Challenge: # query: IC50 | item COc1cc(C(=O)NC2CC3(CCN(CC4CCN(c5cc(OC)c(NC6CCC(=O)NC6=O)cc5F)CC4)CC3)C2)ncc1Nc1ncc2c(n1)N(C(C)C)CC(F)(F)C(=O)N2C (stereo not drawn) | system: MRC-5 cell line
Response given: > 10 µM

Challenge: Tell me reported IC50 for COc1cc(C(=O)NN2CCC(CCN3CCN(c4cc(F)c(NC5CCC(=O)NC5=O)cc4F)CC3)CC2)c(F)cc1Nc1ncc2c(n1)N(C(C)C)CC(F)(F)C(=O)N2C (stereo not drawn) , tested with MRC-5 cell line.
Response given: > 10 µM

Challenge: Item COc1cc(C(=O)NN2CCC(CCN3CCN(c4ccc(NC5CCC(=O)NC5=O)c(F)c4F)CC3)CC2)ccc1Nc1ncc2c(n1)N(C1CCCC1)CC(F)(F)C(=O)N2C (stereo not drawn) with MRC-5 cell line - IC50?
Response given: > 10 µM

Challenge: Reported IC50 for MRC-5 cell line, given COc1cc(C(=O)NC2CC3(CCN(CC4CCN(c5cc(F)c(NC6CCC(=O)NC6=O)cc5F)CC4)CC3)C2)c(F)cc1Nc1ncc2c(n1)N(C(C)C)CC(F)(F)C(=O)N2C (stereo not drawn) ?
Response given: > 10 µM
